Measured photolytic yield, listed per entry for reference.
- Protocol notes: Photolytic molecule experiment: TTAP photolytic reaction in solution under LED, HPLC yield
- Format: physicochemical
- Measurement context: PtOEP; green LED light (20 mW/cm^2, 532 nm)
Endpoint name: photolytic yield (%)

In [3]: df
Out[3]:
                                smiles_text  unit_string  observed_measurement
0  CC(C)(C)OC(=O)NCC(=O)OCc1c2ccccc2cc2ccccc12            %                  58.4
1        CC(C)COC(=O)OCc1c2ccccc2cc2ccccc12            %                  72.3
2          CCCCNC(=O)OCc1c2ccccc2cc2ccccc12            %                  51.0
3              CC(=O)OCc1c2ccccc2cc2ccccc12            %                    83
